Test Target: DOR (Mus musculus, UniProt P32300)
Sequence (P32300 whole entry): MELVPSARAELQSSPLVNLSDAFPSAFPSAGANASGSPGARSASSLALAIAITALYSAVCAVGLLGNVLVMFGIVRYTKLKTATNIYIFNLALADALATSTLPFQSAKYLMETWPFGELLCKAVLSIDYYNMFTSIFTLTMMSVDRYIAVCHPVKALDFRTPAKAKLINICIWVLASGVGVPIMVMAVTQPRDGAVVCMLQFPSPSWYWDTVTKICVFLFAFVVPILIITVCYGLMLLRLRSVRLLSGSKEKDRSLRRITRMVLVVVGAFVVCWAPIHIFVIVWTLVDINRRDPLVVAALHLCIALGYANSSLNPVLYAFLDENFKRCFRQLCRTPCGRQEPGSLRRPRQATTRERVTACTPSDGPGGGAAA
Note to self: class labels come from recorded Ki, ranges listed here: lower range (below 0.007 µM), middle range (0.007 µM to below 0.02 µM), upper range (0.02 µM or more)

Input Smiles | Qualitative Label
O=C(N[C@@H]1CC[C@@]2(O)[C@H]3Cc4ccc(O)c5c4[C@@]2(CCN3CC2CC2)[C@H]1O5)c1cccc2cc(Cl)[nH]c12 | lower range
N#Cc1cc2cccc(C(=O)N[C@H]3CC[C@@]4(O)[C@H]5Cc6ccc(O)c7c6[C@@]4(CCN5CC4CC4)[C@H]3O7)c2[nH]1 | middle range
CC(=O)c1c[nH]c2c(C(=O)N[C@@H]3CC[C@@]4(O)[C@H]5Cc6ccc(O)c7c6[C@@]4(CCN5CC4CC4)[C@H]3O7)cccc12 | upper range
O=C(N[C@H]1CC[C@@]2(O)[C@H]3Cc4ccc(O)c5c4[C@@]2(CCN3CC2CC2)[C@H]1O5)c1cccc2cc(-c3ccccc3)[nH]c12 | lower range
CC(C)c1c[nH]c2c(C(=O)N[C@H]3CC[C@@]4(O)[C@H]5Cc6ccc(O)c7c6[C@@]4(CCN5CC4CC4)[C@H]3O7)cccc12 | upper range
O=C(N[C@@H]1CC[C@@]2(O)[C@H]3Cc4ccc(O)c5c4[C@@]2(CCN3CC2CC2)[C@H]1O5)c1cccc2c(Cl)c[nH]c12 | lower range
O=C(N[C@H]1CC[C@@]2(O)[C@H]3Cc4ccc(O)c5c4[C@@]2(CCN3CC2CC2)[C@H]1O5)c1cccc2cc(Br)[nH]c12 | lower range
O=C(N[C@H]1CC[C@@]2(O)[C@H]3Cc4ccc(O)c5c4[C@@]2(CCN3CC2CC2)[C@H]1O5)c1cccc2c(-c3ccccc3)c[nH]c12 | middle range
O=C(N[C@@H]1CC[C@@]2(O)[C@H]3Cc4ccc(O)c5c4[C@@]2(CCN3CC2CC2)[C@H]1O5)c1cccc2c([N+](=O)[O-])c[nH]c12 | upper range
N#Cc1c[nH]c2c(C(=O)N[C@H]3CC[C@@]4(O)[C@H]5Cc6ccc(O)c7c6[C@@]4(CCN5CC4CC4)[C@H]3O7)cccc12 | middle range
O=C(N[C@@H]1CC[C@@]2(O)[C@H]3Cc4ccc(O)c5c4[C@@]2(CCN3CC2CC2)[C@H]1O5)c1cccc2cc(-c3ccccc3)[nH]c12 | upper range

All values here come from paper PMC10546487.
